assay-overview: DSSTox (CPDBAS) Carcinogenic Potency Database Summary MultiCellCall Results
test-context: animal carcinogenicity bioassays, multi-cell call summary
Calls of active or inactive are those of the source.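 The calls were made as follows: active = tumour findings in long-term animal cancer tests in more than one sex, species or organ; inactive = no tumour finding and more than one negative test.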
Outcome field: choose from active, inactive

// known answers, use as guide
Nc1ccc(Sc2ccc(N)cc2)cc1 : active
O=NN1CCCC1c1cccnc1 (centres undefined) : active
O=C(O)c1cc(Oc2ccc(C(F)(F)F)cc2Cl)ccc1[N+](=O)[O-] : active

Q) Write down the call the test reported for this molecule. Item: N[C@@H](CCC(=O)O)C(=O)O
A) inactive

Q) Could you check what this test reported for [C-]1=CC=CC1.[C-]1=CC=CC1.[Cl-].[Cl-].[Ti+4] ?
A) inactive

Q) Entry Nc1c(Cl)cc(Cl)cc1Cl : call = ?
A) active

Q) Fill in: this test's call for C/C=C/C=C/C(=O)O is ___
A) inactive

Q) Give the logged outcome of this assay for the following molecule: CC[C@H](C)C(=O)O[C@H]1C[C@@H](C)C=C2C=C[C@H](C)[C@H](CC[C@@H]3C[C@@H](O)CC(=O)O3)[C@H]21
A) active

Q) Which outcome did this test record for the molecule O=P1(NCCCl)OCCCN1CCCl (centres undefined) ?
A) active

Sourced from PubChem BioAssay AID1205
